tested on: Wnt activity (Sp5-Luc reporter, SW480 colon carcinoma cells); assay: Sp5-Luc Wnt reporter gene assay in SW480 colon carcinoma cells; assay type: cell-based; details: Homo sapiens; SW480 cells stably expressing Sp5-Luc reporter; 42 h incubation; BrightGlo luminescence normalized to DMSO
Listed next: entries and their corresponding pIC50.
// field semantics: pIC50 = negative decimal log of concentration (mol/L)

Look over these answered cases.
[[record]]
substance_smiles = "CC(C)Nc1cncc(-c2cnc3[nH]nc(-c4nc5c(-c6cc(F)cc(NCCN(C)C)c6)nccc5[nH]4)c3c2)c1"
endpoint_label = "pIC50"
result_number = 7.82

[[record]]
substance_smiles = "Fc1cccc(-c2nccc3[nH]c(-c4n[nH]c5ncc(-c6cncc(OCCN7CCCC7)c6)cc45)nc23)c1"
endpoint_label = "pIC50"
result_number = 5.82

[[record]]
substance_smiles = "Cc1cn(-c2nccc3[nH]c(-c4n[nH]c5ncc(-c6cncc(CN7CCCC7)c6)cc45)nc23)cn1"
endpoint_label = "pIC50"
result_number = 6.24

[[record]]
substance_smiles = "CN(C)CC(=O)Nc1cncc(-c2cnc3[nH]nc(-c4nc5c(-c6cccc(F)c6)nccc5[nH]4)c3c2)c1"
endpoint_label = "pIC50"
result_number = 6.74

[[record]]
substance_smiles = "Cc1ncc(-c2cnc3[nH]nc(-c4nc5c(-c6cccc(F)c6)nccc5[nH]4)c3c2)n1C"
endpoint_label = "pIC50"
result_number = 7.92


Specify measured pIC50 for `Cc1cn(-c2nccc3[nH]c(-c4n[nH]c5ncc(-c6cncc(NC(=O)C(C)(C)C)c6)cc45)nc23)cn1` .
5.80

Specify measured pIC50 for `CC(C)(C)C(=O)Nc1cncc(-c2cnc3[nH]nc(-c4nc5c(-c6ccc(F)s6)nccc5[nH]4)c3c2)c1` .
8.03

Specify measured pIC50 for `CS(=O)(=O)NCc1cc(F)cc(-c2nccc3[nH]c(-c4n[nH]c5ncc(-c6cncc(CNCc7ccccc7)c6)cc45)nc23)c1` .
6.84

Specify measured pIC50 for `CN(C)CCOc1cncc(-c2cnc3[nH]nc(-c4nc5c(-c6cccc(F)c6)nccc5[nH]4)c3c2)c1` .
6.46

Specify measured pIC50 for `c1cncc(-c2nccc3[nH]c(-c4n[nH]c5ncc(-c6cncc(CN7CCCCC7)c6)cc45)nc23)c1` .
5.41

Specify measured pIC50 for `CCCCC(=O)Nc1cncc(-c2cnc3[nH]nc(-c4nc5c(-c6ccoc6)nccc5[nH]4)c3c2)c1` .
7.25

----------
test system: Wnt activity (Sp5-Luc reporter, SW480 colon carcinoma cells); experiment: Sp5-Luc Wnt reporter gene assay in SW480 colon carcinoma cells; type: cell-based; conditions: Homo sapiens; SW480 cells stably expressing Sp5-Luc reporter; 42 h incubation; BrightGlo luminescence normalized to DMSO
ENDPOINT LABEL: pIC50
// field semantics: pIC50 = negative decimal log of concentration (mol/L)

Look over these answered cases.
[[record]]
compound = "CN(C)CCNc1cc(F)cc(-c2nccc3[nH]c(-c4n[nH]c5ncc(-c6cncc(CNCC7CCCC7)c6)cc45)nc23)c1 [Compound 440]"
assay_system = "Wnt activity (Sp5-Luc reporter, SW480 colon carcinoma cells)"
result_number = 6.12

[[record]]
compound = "Cc1ccc(-c2nccc3[nH]c(-c4n[nH]c5ncc(-c6cncc(NC(=O)C(C)C)c6)cc45)nc23)s1 [Compound 347]"
assay_system = "Wnt activity (Sp5-Luc reporter, SW480 colon carcinoma cells)"
result_number = 7.68

[[record]]
compound = "CC(C)(C)CC(=O)Nc1cncc(-c2cnc3[nH]nc(-c4nc5c(-c6ccccc6F)nccc5[nH]4)c3c2)c1 [Compound 68]"
assay_system = "Wnt activity (Sp5-Luc reporter, SW480 colon carcinoma cells)"
result_number = 7.02

[[record]]
compound = "CC(C)C(=O)Nc1cncc(-c2cnc3[nH]nc(-c4nc5c(-c6ccccc6F)nccc5[nH]4)c3c2)c1 [Compound 61]"
assay_system = "Wnt activity (Sp5-Luc reporter, SW480 colon carcinoma cells)"
result_number = 7.55


Specify measured pIC50 for O=C(CC1CCCCC1)Nc1cncc(-c2cnc3[nH]nc(-c4nc5c(-c6cccc(F)c6)nccc5[nH]4)c3c2)c1 [Compound 899] .
5.71

Specify measured pIC50 for Fc1cccc(-c2nccc3[nH]c(-c4n[nH]c5ncc(C6=CCNCC6)cc45)nc23)c1 [Compound 886] .
5.43
